Where do these numbers come from? They come from the supplement of paper PMC10126150.

System: ATP;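 also: ATP exposure 15 min at 22 °C before imaging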
Test: switch fluorescence ratio, 500 uM ATP over buffer (Cy3 cluster intensity, sum of 5 cycles each) (fold (ratio)); higher = stronger signal-on switching upon ATP binding; sequences stand for … in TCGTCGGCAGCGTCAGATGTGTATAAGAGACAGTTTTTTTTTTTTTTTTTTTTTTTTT…TC
Settings: aptamer strand: ATP DNA aptamer (quencher-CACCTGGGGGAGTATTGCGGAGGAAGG + anchor), 100 nM annealed; ATP concentration: 500 uM
quantity.measured: switch fluorescence ratio

# seq, assay.target, quantity.measured, recorded.measurement
data = [
    ("GTGAATGGGG", "ATP", "switch fluorescence ratio", 0.969),
    ("AGGAGTGGTG", "ATP", "switch fluorescence ratio", 0.994),
    ("TTGTAATAGG", "ATP", "switch fluorescence ratio", 1.27),
    ("AGGGTTGGTA", "ATP", "switch fluorescence ratio", 1.01),
    ("GTTTTCTGGA", "ATP", "switch fluorescence ratio", 0.999),
    ("CGGGGTCGTG", "ATP", "switch fluorescence ratio", 0.99),
    ("AGACTTTAGT", "ATP", "switch fluorescence ratio", 1.01),
    ("AGTCTTAGTC", "ATP", "switch fluorescence ratio", 0.95),
    ("CAGGGATTAA", "ATP", "switch fluorescence ratio", 0.984),
    ("GGATGGGGTC", "ATP", "switch fluorescence ratio", 0.975),
    ("CGGCTGACGA", "ATP", "switch fluorescence ratio", 1.03),
    ("TTTTTAACCT", "ATP", "switch fluorescence ratio", 1.57),
    ("TAAGCTGGTA", "ATP", "switch fluorescence ratio", 0.995),
    ("TCAGTAGTGA", "ATP", "switch fluorescence ratio", 1.06),
    ("ACATGGGGAG", "ATP", "switch fluorescence ratio", 1.02),
    ("CAGCTCTGGG", "ATP", "switch fluorescence ratio", 1),
    ("GTAGTTTGAG", "ATP", "switch fluorescence ratio", 0.996),
    ("TTTTAGGGTG", "ATP", "switch fluorescence ratio", 1.07),
    ("AGGTCTAGAC", "ATP", "switch fluorescence ratio", 1.04),
    ("CAAGGGTGGC", "ATP", "switch fluorescence ratio", 1),
    ("TTGTTTATTC", "ATP", "switch fluorescence ratio", 1.02),
    ("ATGTGGGGGG", "ATP", "switch fluorescence ratio", 0.992),
    ("TAGGATGGGT", "ATP", "switch fluorescence ratio", 0.99),
    ("GGGGTTTTAA", "ATP", "switch fluorescence ratio", 0.988),
    ("ACTCGGTGGG", "ATP", "switch fluorescence ratio", 1.01),
    ("TCACGTTAAT", "ATP", "switch fluorescence ratio", 1.2),
    ("AAACGAGGTC", "ATP", "switch fluorescence ratio", 1.01),
    ("TAGGTGTAGG", "ATP", "switch fluorescence ratio", 1.01),
    ("AGAGTTGGTG", "ATP", "switch fluorescence ratio", 0.997),
    ("CCGGGGAAGT", "ATP", "switch fluorescence ratio", 0.978),
    ("AGTTGCCAGC", "ATP", "switch fluorescence ratio", 0.994),
    ("ATAAAGACGT", "ATP", "switch fluorescence ratio", 1.02),
    ("TTGGTTTCCT", "ATP", "switch fluorescence ratio", 1.02),
    ("AAAGAGTGTT", "ATP", "switch fluorescence ratio", 0.978),
    ("CGGGGTTGCC", "ATP", "switch fluorescence ratio", 0.955),
    ("GCAGTTTGGT", "ATP", "switch fluorescence ratio", 0.998),
    ("GGGCTAAGGC", "ATP", "switch fluorescence ratio", 0.992),
    ("AGTTTTTAGA", "ATP", "switch fluorescence ratio", 1.03),
    ("GCCTTCCGTT", "ATP", "switch fluorescence ratio", 1.39),
    ("CGGAGGACAA", "ATP", "switch fluorescence ratio", 0.976),
    ("GTCTAGAAAG", "ATP", "switch fluorescence ratio", 0.985),
    ("TCTGTCAAGG", "ATP", "switch fluorescence ratio", 1),
    ("AGTGATTGGG", "ATP", "switch fluorescence ratio", 0.995),
]
